Every entry's value here was drawn from patent US11130803B2.

Molecular target: T1, hLTBP1-proTGFβ1 (Homo sapiens, UniProt P01137)
T1 construct: made in house; host or cells: Expi293F cells, transient co-transfection
T1 sequence (P01137 30-390): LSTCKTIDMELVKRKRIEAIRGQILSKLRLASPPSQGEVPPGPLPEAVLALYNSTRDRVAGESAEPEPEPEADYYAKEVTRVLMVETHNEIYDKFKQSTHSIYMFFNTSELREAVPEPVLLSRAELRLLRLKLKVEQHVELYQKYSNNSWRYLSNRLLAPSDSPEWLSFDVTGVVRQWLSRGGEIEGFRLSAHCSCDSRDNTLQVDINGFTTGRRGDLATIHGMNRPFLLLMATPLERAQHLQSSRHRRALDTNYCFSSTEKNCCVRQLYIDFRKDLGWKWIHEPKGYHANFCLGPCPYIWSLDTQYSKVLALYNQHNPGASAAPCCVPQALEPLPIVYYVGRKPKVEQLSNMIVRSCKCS
T1 sequence (Q14766 873-1507 partner): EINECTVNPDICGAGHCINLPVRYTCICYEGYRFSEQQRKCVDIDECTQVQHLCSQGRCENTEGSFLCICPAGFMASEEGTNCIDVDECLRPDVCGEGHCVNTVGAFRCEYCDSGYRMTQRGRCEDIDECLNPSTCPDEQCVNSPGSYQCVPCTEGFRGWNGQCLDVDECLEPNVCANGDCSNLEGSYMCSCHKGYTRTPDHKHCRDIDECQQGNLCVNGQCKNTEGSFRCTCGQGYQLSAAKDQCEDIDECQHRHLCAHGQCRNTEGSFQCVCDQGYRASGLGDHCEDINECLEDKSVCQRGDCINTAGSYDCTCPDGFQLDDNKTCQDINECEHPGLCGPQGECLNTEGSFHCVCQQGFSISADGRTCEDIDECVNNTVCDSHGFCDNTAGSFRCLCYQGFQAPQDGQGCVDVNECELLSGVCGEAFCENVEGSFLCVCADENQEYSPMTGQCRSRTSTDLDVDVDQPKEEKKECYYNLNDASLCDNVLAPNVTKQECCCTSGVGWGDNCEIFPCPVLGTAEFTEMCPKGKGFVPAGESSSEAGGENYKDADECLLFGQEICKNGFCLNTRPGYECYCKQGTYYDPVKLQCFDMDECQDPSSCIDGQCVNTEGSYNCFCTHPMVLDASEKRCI
Assay: MSD-SET solution equilibrium titration binding
Settings: MSD-SET at equilibrium, hIgG4, human complex; in M
(B) hLTBP1, Matrix-associated proTGFβ1 KD reference

A selection of reference data follows.
molecule	data value
Ab29: monoclonal antibody; VH SEQ ID NO: 137, VL SEQ ID NO: 15 (antibody, V domains shown) VH: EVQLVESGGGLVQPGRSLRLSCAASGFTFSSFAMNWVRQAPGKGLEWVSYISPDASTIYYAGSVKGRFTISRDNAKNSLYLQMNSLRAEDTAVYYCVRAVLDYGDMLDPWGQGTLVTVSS VL: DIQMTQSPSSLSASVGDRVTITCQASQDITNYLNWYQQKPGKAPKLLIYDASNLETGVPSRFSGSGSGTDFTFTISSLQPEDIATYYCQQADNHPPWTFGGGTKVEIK	1.20E−11
Ab19: monoclonal antibody; VH SEQ ID NO: 250, VL SEQ ID NO: 241 (antibody, V domains shown) VH: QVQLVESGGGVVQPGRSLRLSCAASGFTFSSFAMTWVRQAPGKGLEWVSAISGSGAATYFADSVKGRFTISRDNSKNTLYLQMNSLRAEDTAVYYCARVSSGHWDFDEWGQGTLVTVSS VL: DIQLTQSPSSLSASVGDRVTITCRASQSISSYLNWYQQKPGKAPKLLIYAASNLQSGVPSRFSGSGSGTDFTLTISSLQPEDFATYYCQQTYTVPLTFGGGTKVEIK	2.10E−09
Ab24: monoclonal antibody; VH SEQ ID NO: 132, VL SEQ ID NO: 15 (antibody, V domains shown) VH: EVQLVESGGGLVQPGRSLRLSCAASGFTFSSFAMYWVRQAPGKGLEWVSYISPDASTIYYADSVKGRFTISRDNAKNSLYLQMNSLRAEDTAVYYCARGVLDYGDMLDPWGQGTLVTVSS VL: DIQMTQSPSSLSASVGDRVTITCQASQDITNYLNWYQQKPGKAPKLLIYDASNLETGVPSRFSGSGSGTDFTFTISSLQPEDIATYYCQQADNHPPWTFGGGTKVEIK	2.40E−11
Ab31: monoclonal antibody; VH SEQ ID NO: 139, VL SEQ ID NO: 15 (antibody, V domains shown) VH: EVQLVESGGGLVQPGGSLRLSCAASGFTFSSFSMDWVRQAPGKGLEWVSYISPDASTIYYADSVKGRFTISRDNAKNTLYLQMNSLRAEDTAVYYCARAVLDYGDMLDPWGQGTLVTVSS VL: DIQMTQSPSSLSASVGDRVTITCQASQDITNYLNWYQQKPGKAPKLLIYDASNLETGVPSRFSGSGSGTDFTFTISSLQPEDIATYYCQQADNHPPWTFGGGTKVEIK	1.90E−11
Ab20: monoclonal antibody; VH SEQ ID NO: 251, VL SEQ ID NO: 241 (antibody, V domains shown) VH: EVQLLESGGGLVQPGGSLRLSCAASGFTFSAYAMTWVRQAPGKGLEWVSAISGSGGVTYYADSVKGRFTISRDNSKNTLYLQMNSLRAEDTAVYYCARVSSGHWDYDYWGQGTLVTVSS VL: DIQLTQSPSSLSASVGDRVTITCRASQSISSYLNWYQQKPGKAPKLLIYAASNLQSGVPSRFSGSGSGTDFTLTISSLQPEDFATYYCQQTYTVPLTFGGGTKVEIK	2.20E−10
Ab30: monoclonal antibody; VH SEQ ID NO: 138, VL SEQ ID NO: 15 (antibody, V domains shown) VH: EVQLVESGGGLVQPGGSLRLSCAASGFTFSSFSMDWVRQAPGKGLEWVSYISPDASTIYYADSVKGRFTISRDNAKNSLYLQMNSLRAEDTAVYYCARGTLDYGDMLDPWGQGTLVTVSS VL: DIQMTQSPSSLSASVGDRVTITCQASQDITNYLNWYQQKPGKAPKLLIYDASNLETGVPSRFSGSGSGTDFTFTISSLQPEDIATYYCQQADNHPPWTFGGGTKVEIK	3.10E−11
Ab33: monoclonal antibody; VH SEQ ID NO: 141, VL SEQ ID NO: 15 (antibody, V domains shown) VH: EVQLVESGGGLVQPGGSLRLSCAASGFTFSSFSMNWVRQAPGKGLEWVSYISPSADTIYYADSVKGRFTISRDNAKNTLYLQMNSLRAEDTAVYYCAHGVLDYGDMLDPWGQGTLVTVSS VL: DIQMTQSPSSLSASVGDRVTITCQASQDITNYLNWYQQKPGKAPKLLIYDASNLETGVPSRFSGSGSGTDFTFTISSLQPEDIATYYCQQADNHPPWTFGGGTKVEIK	1.10E−11

From here, focus on the item given below.
For the molecule Ab12: monoclonal antibody; VH SEQ ID NO: 237, VL SEQ ID NO: 241 (antibody, V domains shown) VH: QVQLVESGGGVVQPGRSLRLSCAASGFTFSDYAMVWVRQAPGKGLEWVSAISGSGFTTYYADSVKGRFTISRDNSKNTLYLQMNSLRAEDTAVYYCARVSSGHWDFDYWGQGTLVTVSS VL: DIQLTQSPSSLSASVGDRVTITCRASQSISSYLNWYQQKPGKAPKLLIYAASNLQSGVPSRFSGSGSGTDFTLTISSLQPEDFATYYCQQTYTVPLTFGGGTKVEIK , what (B) hLTBP1, Matrix-associated proTGFβ1 KD is on record?
7.80E−10
